target: human SGLT1 (hSGLT1) (human, UniProt P13866); test: primary screen, percent of control activity; higher = less effect of the substance; parameters: single well; conditions: 50 µM
Sequence (P13866 whole entry, looked up): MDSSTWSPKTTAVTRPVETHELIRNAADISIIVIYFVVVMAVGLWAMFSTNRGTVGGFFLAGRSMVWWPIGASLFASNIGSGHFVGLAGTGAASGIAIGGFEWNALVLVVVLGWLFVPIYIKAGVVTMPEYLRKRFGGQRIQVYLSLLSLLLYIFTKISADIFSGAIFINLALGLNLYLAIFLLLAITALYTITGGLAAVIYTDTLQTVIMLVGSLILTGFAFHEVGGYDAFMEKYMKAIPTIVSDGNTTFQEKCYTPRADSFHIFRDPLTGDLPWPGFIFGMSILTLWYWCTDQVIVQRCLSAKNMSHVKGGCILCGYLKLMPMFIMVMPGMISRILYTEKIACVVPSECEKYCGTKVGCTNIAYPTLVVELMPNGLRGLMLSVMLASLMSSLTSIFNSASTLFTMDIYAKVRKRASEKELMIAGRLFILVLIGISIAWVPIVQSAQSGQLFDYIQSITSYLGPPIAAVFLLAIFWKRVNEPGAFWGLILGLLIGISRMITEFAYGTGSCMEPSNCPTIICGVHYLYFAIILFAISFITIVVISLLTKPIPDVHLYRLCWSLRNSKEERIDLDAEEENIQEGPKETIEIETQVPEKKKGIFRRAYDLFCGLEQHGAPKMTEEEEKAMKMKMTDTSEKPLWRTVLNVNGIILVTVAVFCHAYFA
Among all 1,900 compounds or so, about 40 (2%) showed an effect of 50% or more. What follows is part of a selection rich in strong results, with near analogues and random picks from the rest.
measure: NORMALIZED SGLT1 ACTIVITY (%)

1. COc1cc(OC)c2c(=O)c(-c3ccccc3)coc2c1 = 336
2. COC(=O)Nc1nc2ccc(S(=O)c3ccccc3)cc2[nH]1 (stereo not shown) = 125
3. C[C@H]1OC(n2cc(F)c(=O)[nH]c2=O)C(O)[C@@H]1O (stereo partly shown) = 112
4. COc1cc(O)cc(/C=C/c2ccccc2)c1 = 494
5. C#CCCCCCCCCCCCC(O)CC(O)COC(C)=O.C=CCCCCCCCCCCCC(O)CC(O)COC(C)=O (stereo not shown) = 197
6. O=C1CCCC2C3CC(CN12)[C@@H]1CCCCN1C3.[O-][Cl+3]([O-])([O-])O (stereo partly shown) = 97
7. O=C(O)c1cn(C2CC2)c2cc(N3CCNCC3)c(F)cc2c1=O = 76
8. Cc1nc2ccccn2c(=O)c1CCN1CCC(C(=O)c2ccc(F)cc2)CC1 = 129
9. CCCCCCCCCN1C[C@H](O)[C@@H](O)[C@H](O)[C@H]1CO = 83.2
10. CN1CCC(=C2c3ccccc3Sc3ccccc32)CC1.O=C(O)/C=C\C(=O)O = 36
11. O=C(O)Cc1nn(Cc2ccc(Br)cc2F)c(=O)c2ccccc12 = 180
12. N.N.[Cl][Pt][Cl] = 90
13. Oc1cc(O)cc(/C=C/c2ccccc2)c1 = 39
14. CN(Cc1cc(Br)cc(Br)c1N)C1CCCCC1.Cl = 44
15. COC(=O)CC1C(C)(C)C(OC(C)=O)[C@@H]2[C@@H](OC(C)=O)[C@]34O[C@@]2(O)[C@]1(C)C3CC[C@]1(C)C4=CC(=O)O[C@H]1c1ccoc1 (stereo partly shown) = 94
16. CC(C)=CCCC1(C)C=Cc2c(O)c3c(c(CC=C(C)C)c2O1)OC12C(=CCCC1C(C)(C)O[C@@]2(C/C=C(\C)C(=O)O)C(=O)O)C3=O (stereo partly shown) = 39
17. CNC(C)[C@@H]1CC[C@@H](N)[C@@H](OC2[C@@H](N)C[C@@H](N)[C@H](OC3OC[C@](C)(O)[C@H](NC)[C@H]3O)[C@H]2O)O1.O=S(=O)(O)O (stereo partly shown) = 95
18. C1CCC(C(CC2CCCCN2)C2CCCCC2)CC1.O=C(O)/C=C\C(=O)O (stereo not shown) = 1
19. O=C(O)c1cc(O)c(=O)c2c(O)c(O)ccc2c1 = 141
20. CCCc1ncc(C[n+]2ccccc2C)c(N)n1.Cl.[Cl-] = 87
21. CN1CCN(CC/C=C2/c3ccccc3Sc3ccc(S(=O)(=O)N(C)C)cc32)CC1 = 116
22. CCC[C@@H]1CCCCN1 = 85
23. CC(C)=CCCC1(C)C=Cc2c(O)c3c(c(CC=C(C)C)c2O1)OC12C(=CC4CC1C(C)(C)OC2(C/C=C(/C)C(=O)O)C4=O)C3=O (stereo not shown) = 163
24. C[N+](C)(C)CCCCCC[N+](C)(C)C.[Br-].[Br-] = 95
25. COc1ccc2c(c1)OC/C(=C/c1ccc(O)c(O)c1)C2=O = 249
26. COC(=O)[C@H]1[C@H]2C[C@H]3c4[nH]c5cc(OC)ccc5c4CCN3C[C@H]2C[C@@H](OC(=O)c2cc(OC)c(OC)c(OC)c2)[C@@H]1OC = 345
27. C=C[C@H]1CN2CC[C@H]1C[C@H]2[C@H](O)c1ccnc2ccccc12 = 77
28. C[C@@H]1C(=O)O[C@H]2[C@H]1CC[C@@]1(C)C=CC(=O)[C@@]3(C)O[C@@]213 = 96
29. CCCCCCCCCCCCCCCC[N+](C)(C)C.[Br-] = 19
30. CC(=O)O[C@@H]1CC2C(C)(C)C(=O)C3OC3[C@]2(C)C2CC[C@@]3(C)[C@H](c4ccoc4)OC(=O)C4OC43[C@@]21C (stereo partly shown) = 138
31. O=C(Cn1ccnc1[N+](=O)[O-])NCCO = 119
32. O=C1CN(/N=C/c2ccc(-c3ccc([N+](=O)[O-])cc3)o2)C(=O)[N-]1.[Na+] = 103
33. CSc1ccc2c(c1)C(N1CCN(C)CC1)Cc1ccccc1S2.O=C(O)/C=C\C(=O)O (stereo not shown) = 115
34. CCOP(=S)(OCC)SCn1c(=O)oc2cc(Cl)ccc21 = 57
35. COc1cccc(OC)c1OCCNCC1COc2ccccc2O1.Cl (stereo not shown) = 72
36. CC[C@H](C)[C@H](N)C(=O)N1CCC[C@H]1C(=O)N[C@H](C(=O)O)[C@@H](C)CC = 98
37. COc1ccc(/C=C/c2cc(O)cc(O)c2)cc1 = 198
38. CCOc1nc2cccc(C(=O)OC(C)OC(=O)OC3CCCCC3)c2n1Cc1ccc(-c2ccccc2-c2nnn[nH]2)cc1 (stereo not shown) = 36
39. Cl.Nc1c(Br)cc(Br)cc1CNC1CCC(O)CC1 (stereo not shown) = 99
40. C#CCN(C)Cc1ccccc1.Cl = 134

###

Parameter NORMALIZED SGLT1 ACTIVITY (%): see the listing below.
target: human SGLT1 (hSGLT1) (human, UniProt P13866); assay: primary screen, percent of control activity; higher = less effect of the substance; parameters: single well; conditions: 50 µM
Hit rate of the full screen: of about 1,900 compounds, about 40 (2%) showed an effect of 50% or more. This is one part of a sample in which strong results are shown more often than they occur. Residues, ends and D or L forms follow the SMILES beside them.
measure: NORMALIZED SGLT1 ACTIVITY (%)

1. CC1=CC(=O)C2=C(C)CC[C@@H]3[C@H](OC(=O)[C@H]3C)[C@@H]12 = 109
2. Cc1c(O)c(C(=O)CC(C)C)c2oc3c(C(=O)CC(C)C)c(O)c(C)c(O)c3c2c1O = 107
3. Cn1c(=O)c2c(ncn2CCCl)n(C)c1=O = 183
4. Cn1c(=O)[nH]c2ncn(C)c2c1=O = 164
5. CS(=O)(=O)O.OC(CCN1CCCCC1)(c1ccccc1)c1ccccc1 = 101
6. CC1(C)C2CC(=O)O[C@@]3(C)C4=CC(=O)O[C@@H](c5ccoc5)[C@]4(C)CCC3[C@@]2(C)C=C[C@H]1O (some centres unmarked) = 132
7. O=C1CN(/N=C/c2ccc([N+](=O)[O-])o2)C(=O)N1 = 159
8. N[C@@H](Cc1ccccc1)C(=O)N[C@@H](Cc1ccc(O)cc1)C(=O)O (H-Phe-Tyr-OH) = 112
9. Cl.Cl.NCCc1c[nH]cn1 = 140
10. Cl.OC(CCN1CCCCC1)(c1ccccc1)C1CCCCC1 (centres unmarked) = 69
11. Cl.OC(CCN1CCCC1)(c1ccccc1)C1CCCCC1 (centres unmarked) = 45

###

target: human SGLT1 (hSGLT1) (human); experiment: primary screen, percent of control activity; higher = less effect of the substance; design: single well; settings: 50 µM
Out of some 1,900 compounds screened, about 40 (2%) showed an effect of 50% or more. For the sample, strong results were picked, then their nearest neighbours and some compounds at random.
Parameter NORMALIZED SGLT1 ACTIVITY (%): see the listing below.
measure: NORMALIZED SGLT1 ACTIVITY (%)

1. CN(C)C(=O)Oc1ccc[n+](C)c1.[Br-] = 105
2. C[C@]12CCC(=O)C=C1CCC1C2CC[C@@]2(C)C1CC[C@@H]2O (some centres unmarked) = 98
3. CCN1CCCC(OC(=O)C(c2ccccc2)c2ccccc2)C1.Cl (centres unmarked) = 90
4. N#Cc1c(Cl)c(Cl)c(Cl)c(C#N)c1Cl = 76
5. O=C(O)c1cc2cc(Cl)ccc2[nH]1 = 238
6. CC(=O)OCC(=O)[C@H]1CC[C@H]2[C@@H]3CCC4=CC(=O)CC[C@]4(C)[C@H]3CC[C@]12C = 114
7. CC1(C)Oc2ccc3ccc(=O)oc3c2CC1O (centres unmarked) = 159
8. CNC(C)[C@H](O)c1ccccc1.Cl (some centres unmarked) = 106
9. CC(=O)OCC1=C(C(=O)[O-])N2C(=O)[C@@H](NC(=O)Cc3cccs3)[C@H]2SC1.[Na+] = 140
10. CC(=O)[C@H]1CCC2C3CCC4=CC(=O)CC[C@]4(C)C3CC[C@@]21C (some centres unmarked) = 38
11. CC(NCCC(c1ccccc1)c1ccccc1)c1ccccc1.Cl (centres unmarked) = 48
